From: PubChem BioAssay

# assayProcedure: blockers of DNA damage checkpoint Chk1 activation – imaging, HeLa, hydroxyurea, phospho-Chk1 antibody, percent positive cells, primary screen (AID 1186)
# condition: hydroxyurea-induced phospho-Chk1 immunofluorescence imaging, higher = more signal
In this section, each of the molecules is paired with its reported z-score.
// no unit, no text: just the number

Recorded z-score of CC(C)[C@@H](C(=O)O)n1cc(C2(O)CCCCC2)nn1 , please. -0.3

Thanks! And CCOC(=O)C[C@H]1[C@H](OC(=O)c2ccc(-c3ccccc3)cc2)[C@@H](NC(=O)c2ccccc2)c2cc(OCCCO)ccc2N1C(=O)c1ccc2ccccc2n1 ? -0.0348

Thanks! And [N-]=[N+]=Nc1ccccc1C[C@@]1(C(=O)N2CCCCC2)N=C(c2ccc(OCCCO)cc2)O[C@@H]1c1ccccc1 ? -0.878

Thanks! And CCCNC(=O)[C@@]1(Sc2ccc(C)cc2)CC(=O)N(Cc2ccccc2C(F)(F)F)[C@@H]1c1ccc(CO)cc1I ? -0.104

Thanks! And CC(C)NC(=O)[C@@H]1c2ccccc2C(=O)N(C(C)C)[C@H]1c1ccc(CO)cc1 ? -0.0669

Thanks! And CCCCC(=C=CC[C@@H](O)c1ccc(CO)o1)CCO ? -0.364

Thanks! And COc1ccccc1CN1C(=O)c2ccccc2[C@@]2(Cc3ccccc3N(CCCN(C)C)C2=O)[C@@H]1c1ccc(CO)cc1 ? -0.481

Thanks! And C#CCN1[C@@H](Cc2ccc(O)cc2)C(=O)O[C@H](Cc2ccccc2)[C@@H]1/C=C/C1CC1 ? -0.473

Thanks! And COC(=O)C[C@H]1O[C@@H](CCc2ccccc2)[C@@H](C)[C@@H]1[Si](C)(C)c1ccc(OC)cc1 ? 0.0465

Thanks! And O=C1[C@@]23C=C(Br)[C@H](C[C@@H]2COC3)[C@]12CO2 ? 0.825

Thanks! And COc1ccc([C@H]2C[C@H]3C(Br)=C[C@@]2(CO)C(=O)[C@]32CO2)cc1 ? -0.0281

Thanks! And CC(C)CNC(=O)[C@@]1(Cc2ccccc2I)c2ccccc2C(=O)N(Cc2ccccc2C(F)(F)F)[C@H]1c1ccc(CO)cc1 ? 0.172

Thanks! And COC(=O)[C@]1(CCC(=O)OC(C)(C)C)N=C(c2ccc(OCCCO)cc2)O[C@@H]1c1ccccc1 ? -0.621

Thanks! And COc1ccc(C#Cc2ccc3c(c2)[C@]2(C(=O)N3)[C@H](c3ccc(O)cc3)N3[C@H](c4ccccc4)[C@H](c4ccccc4)OC(=O)[C@H]3[C@@H]2C(=O)N2CCc3cc(OC)c(OC)cc3C2)cc1 ? -0.0377

Thanks! And O=C1N(CCS(=O)(=O)c2ccccc2)c2ccccc2[C@@H]2OC(c3ccc(OCCCO)cc3)=N[C@]12Cc1ccccc1 ? -0.522

Thanks! And [N-]=[N+]=Nc1ccccc1[C@H]1OC(c2ccc(OCCCO)cc2)=N[C@@]1(Cc1ccccc1)C(=O)N1CCOCC1 ? -0.0747
